system: platelets of guinea-pig; test: Inhibition of the platelet aggregation induced by U46619 (BORN test), guinea-pig platelets; type: cell-based; conditions: Cavia porcellus, Platelet, read-out: PLATELET AGGREGATION GUINEA-PIG IC 50
pIC50: −log10 of the molar value.
PROPERTY: pIC50

[P] CC(=O)c1ccc(S(=O)(=O)NCC2(Cc3ccc(CC(=O)O)cc3)CCCC2)cc1
[Q] O=C(O)Cc1ccc(C2(CNS(=O)(=O)c3ccc(Cl)cc3)CCCC2)cc1
[R] O=P(O)(O)Cc1ccc(CC2(CNS(=O)(=O)c3ccc(Cl)cc3)CCCC2)cc1
[S] O=C(O)Cc1ccc(CC2(CNS(=O)(=O)c3ccc(Cl)cc3F)CCCC2)cc1
Ask: Rank ascending by pIC50. Answer by listing the labels in the order asked for.
Result: Q, P, R, S
(Q: 5.26, P: 5.52, R: 6.03, S: 6.24)

====

test system: platelets of guinea-pig; experiment: Inhibition of the platelet aggregation induced by U46619 (BORN test), guinea-pig platelets; assay type: cell-based; details: Cavia porcellus, Platelet, read-out: PLATELET AGGREGATION GUINEA-PIG IC 50
pIC50: −log10 of the molar value.
PROPERTY: pIC50

Some entries whose results are on file:
INSERT INTO results (molecule, experimental_target, value_observed) VALUES
  ('O=C(O)Cc1ccc(CC2(CNS(=O)(=O)c3ccc(Cl)cc3)CCCCC2)cc1 [Example 87]', 'platelets of guinea-pig', 5.40),
  ('O=C(O)Cc1ccc(CC2(CNS(=O)(=O)c3ccc(Cl)cc3)CCCC2)cc1 [Example 19]', 'platelets of guinea-pig', 6.59);

[a] O=C(O)Cc1cccc(CC2(CNS(=O)(=O)c3ccc(Cl)cc3)CCCC2)c1 [Example 93]
[b] O=C(O)Cc1ccc(C[C@@H]2CCC[C@H]2NS(=O)(=O)c2ccc(F)cc2)cc1 (relative stereo) [Example 4]
Ask: Thinking about recorded pIC50 values, which is higher, a or b ? # respond with the chosen item's label
Result: a

====

system: platelets of guinea-pig; assay: Inhibition of the platelet aggregation induced by U46619 (BORN test), guinea-pig platelets; assay type: cell-based; details: Cavia porcellus, Platelet, read-out: PLATELET AGGREGATION GUINEA-PIG IC 50
PROPERTY: IC50 (nM)

Some entries whose results are on file:
INSERT INTO results (compound, property, unit_descriptor, value_observed) VALUES
  ('O=S(=O)(NCC1(Cc2ccc(CCO)cc2)CCCC1)c1ccc(Cl)cc1', 'IC50', 'nM', 2600),
  ('O=S(=O)(O)Cc1ccc(CC2(CNS(=O)(=O)c3ccc(Cl)cc3)CCCC2)cc1', 'IC50', 'nM', 2900),
  ('Nc1ccc(S(=O)(=O)NCC2(Cc3ccc(Cc4nnn[nH]4)cc3)CCCC2)cc1', 'IC50', 'nM', 2000),
  ('O=C(O)Cc1ccc([C@@H]2CCCC[C@H]2NS(=O)(=O)c2ccc(Cl)cc2)cc1 (relative stereo)', 'IC50', 'nM', 1300),
  ('O=C(O)Cc1ccc(CC2(CNS(=O)(=O)c3ccc(F)cc3)CCCC2)cc1', 'IC50', 'nM', 2400),
  ('O=C(O)Cc1ccc(CC2(CNS(=O)(=O)c3ccc(Cl)s3)CCCC2)cc1', 'IC50', 'nM', 4000);

[P] O=C(O)Cc1ccc(CC2(CNS(=O)(=O)c3ccc(Cl)cc3Cl)CCCC2)cc1
[Q] O=C(O)CCNC(=O)Cc1ccc(CC2(CNS(=O)(=O)c3ccc(Cl)cc3)CCCC2)cc1
Ask: Thinking about recorded IC50 values, which is higher, P or Q ? # respond with the chosen item's label
Result: Q
(Q: 2900 nM, P: 1400 nM)

====

system: platelets of guinea-pig; experiment: Inhibition of the platelet aggregation induced by U46619 (BORN test), guinea-pig platelets; format: cell-based; conditions: Cavia porcellus, Platelet, read-out: PLATELET AGGREGATION GUINEA-PIG IC 50
pIC50: −log10 of the molar value.
PROPERTY: pIC50

Some entries whose results are on file:
INSERT INTO results (molecule, experimental_target, value_observed) VALUES
  ('O=C(O)Cc1ccc(C[C@@H]2CCC[C@H]2NS(=O)(=O)c2ccc(Cl)cc2)cc1 (relative stereo)', 'platelets of guinea-pig', 6.16),
  ('O=C(O)Cc1ccc(CC2(CNS(=O)(=O)c3ccc(I)cc3)CCCC2)cc1', 'platelets of guinea-pig', 5.96),
  ('Cc1ccc(S(=O)(=O)NCC2(Cc3ccc(CC(=O)O)cc3)CCCC2)cc1', 'platelets of guinea-pig', 6.24),
  ('Nc1ccc(S(=O)(=O)NCC2(Cc3ccc(CC(=O)O)cc3)CCCC2)cc1', 'platelets of guinea-pig', 6.29);

[I] CCCCCCOc1ccc(S(=O)(=O)NCC2(Cc3ccc(CC(=O)O)cc3)CCCC2)cc1
[II] O=C(O)Cc1ccc(CC2(CNS(=O)(=O)c3ccc(Cl)cc3)CC2)cc1
Ask: Thinking about recorded pIC50 values, which is higher, I or II ? # respond with the chosen item's label
Result: II

====

tested on: platelets of guinea-pig; test: Inhibition of the platelet aggregation induced by U46619 (BORN test), guinea-pig platelets; type: cell-based; settings: Cavia porcellus, Platelet, read-out: PLATELET AGGREGATION GUINEA-PIG IC 50
PROPERTY: IC50

Some entries whose results are on file:
INSERT INTO measurements (compound, experimental_target, property, value_observed) VALUES
  ('O=C(O)Cc1ccc(CC2(CNS(=O)(=O)c3cccc(Cl)c3)CCCC2)cc1', 'platelets of guinea-pig', 'IC50', '> 5 µM'),
  ('C[S+]([O-])c1ccc(S(=O)(=O)NCC2(Cc3ccc(CC(=O)O)cc3)CCCC2)cc1 (stereo not drawn)', 'platelets of guinea-pig', 'IC50', '> 5 µM');

Sample O=S(=O)(NCC1(Cc2ccc(CCO)cc2)CCCC1)c1cccc(Cl)c1 ; IC50 observed: > 5 µM

====

tested on: platelets of guinea-pig; experiment: Inhibition of the platelet aggregation induced by U46619 (BORN test), guinea-pig platelets; type: cell-based; details: Cavia porcellus, Platelet, read-out: PLATELET AGGREGATION GUINEA-PIG IC 50
PROPERTY: IC50 (nM)

INSERT INTO results (compound, unit_descriptor, value_observed) VALUES
  ('O=C(O)Cc1ccc(C[C@@H]2CCC[C@@H]2NS(=O)(=O)c2ccc(Cl)cc2)cc1 (relative stereo)', 'nM', 600);

[P] O=C(O)Cc1ccc(CC2(CNS(=O)(=O)c3cccs3)CCCC2)cc1
[Q] CCOC(=O)Cc1ccc(CC2(CNS(=O)(=O)c3ccc(Cl)cc3)CCCC2)cc1
[R] O=C(O)Cc1ccc(CC2(CNS(=O)(=O)c3ccc([N+](=O)[O-])cc3)CCCC2)cc1
[S] O=C(O)Cc1ccc(CC2(CNS(=O)(=O)c3ccc4ccccc4c3)CCCC2)cc1
Ask: Arrange these 4 compounds in increasing order of IC50. Answer by listing the labels in the order asked for.
Result: R, S, P, Q

====

test system: platelets of guinea-pig; test: Inhibition of the platelet aggregation induced by U46619 (BORN test), guinea-pig platelets; type: cell-based; conditions: Cavia porcellus, Platelet, read-out: PLATELET AGGREGATION GUINEA-PIG IC 50
PROPERTY: IC50 (nM)

[a] O=C(O)Cc1ccc(CC2(CNS(=O)(=O)c3ccccc3F)CCCC2)cc1
[b] O=C(O)Cc1ccc(CC2(CNS(=O)(=O)c3ccc(OC(F)(F)F)cc3)CCCC2)cc1
Ask: Thinking about recorded IC50 values, which is higher, a or b ? # respond with the chosen item's label
Result: b

[1] O=C(O)Cc1ccc(C2(CNS(=O)(=O)c3ccc(Cl)cc3)CCCCC2)cc1
[2] O=C(O)Cc1ccc(CC2(CNS(=O)(=O)c3ccc(Br)cc3)CCCC2)cc1
Ask: Thinking about recorded IC50 values, which is higher, 1 or 2 ? # respond with the chosen item's label
Result: 1

[P] Cc1ccc(S(=O)(=O)N[C@@H]2CCC[C@H]2Cc2ccc(CC(=O)O)cc2)cc1 (relative stereo)
[Q] CC1(C)CC(CNS(=O)(=O)c2ccc(Cl)cc2)(Cc2ccc(CC(=O)O)cc2)C1
Ask: Problem: Given the entries P and Q , determine which has the lower reported IC50. # respond with the chosen item's label
Result: Q
(Q: 260 nM, P: 3300 nM)

[P] O=C(O)Cc1ccc(CC2(CNS(=O)(=O)c3ccc(O)cc3)CCCC2)cc1
[Q] O=C(O)Cc1ccc(CC2(CNS(=O)(=O)c3ccccc3)CCCC2)cc1
[R] O=C(O)Cc1ccc(CC2(CNS(=O)(=O)c3ccc(Cl)cc3)CCC2)cc1
[S] O=C(O)Cc1ccc(CC2(CNS(=O)(=O)c3ccc(Cl)cc3)CCCCCC2)cc1
Ask: Thanks in advance: please rank these 4 entries by IC50, highest to lowest. Answer by listing the labels in the order asked for.
Result: P, Q, S, R
